Below, each entry is listed with its recorded Dmax.
Target: UniProt:P51531
Assay: HiBit assay in engineered HT1080 CRISPR knock-in cell, 6 hrs (B series), SMARCA2
Assay type: cell-based
Details: HT-1080, HT1080 CRISPR knock-in cells, 6 hrs incubation; read-out: SMARC A2 HT1080 HiBit Dmax (%)

Cc1cc(C(C(=O)N2C[C@H](O)C[C@H]2C(=O)N[C@@H](C)c2ccc(-c3scnc3C#CCOCCCN3CCC(c4ccc5c(c4)-n4c(nc(=O)c6c(Cl)cccc64)C5(C)C)CC3)cc2)C(C)C)on1 (some centres unmarked) [Compound B103]
> 90%

Read the next record carefully.
Note to self: Dmax recorded for Cc1ncsc1-c1ccc([C@H](CC(=O)NC2CCC(N3CCC(c4ccc5c(c4)-n4c(nc(=O)c6c(Cl)cccc64)C5(C)C)CC3)CC2)NC(=O)[C@@H]2C[C@@H](O)CN2C(=O)[C@@H](NC(=O)C2(F)CC2)C(C)(C)C)cc1 (some centres unmarked) [Compound B31] was 70 to 90%

###

Biological target: UniProt P51531
Assay: HiBiT assay for protein degradation, Hela SMARCA2-HiBiT cells (A series);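 note: 24 h compound treatment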
Type: cell-based
Set-up: Hela cells were genetically modified via CRISPR/Cas9 to fuse HiBiT to the carboxy terminus of SMARCA2; host or cells: HeLa (CRISPR/Cas9 HiBiT knock-in)
Details: Hela SMARCA2-HiBiT cells, 24 hours treatment; read-out: SMARC A2 Hela HiBit Dmax (%)
Procedure: Hela cells were genetically modified via CRISPR/Cas9 to fuse HiBiT to the carboxy terminus of SMARCA2 (Promega CS302365) or SMARCA4 (Promega CS3023225). Cells were cultured in DMEM containing 10% FBS and 1% (Vol:Vol) penicillin-streptomycin. […] At the end of experiment, levels of SMARCA2 or SMARCA4 expression were assessed with Nano-Glo® HiBiT Lytic Detection Assay (Promega N3050). IC50 was obtained using the GraphPad Prism data analysis software.
test readout: Dmax

Example entries begin here.
O=C(O)c1ncsc1-c1ccc([C@H](CN2CCOCC2)NC(=O)[C@@H]2C[C@@H](O)CN2C(=O)[C@H](C2CCOCC2)n2cc([C@H]3CC[C@H](CN4CCC(c5ccc6c(c5)-n5c(nc(=O)c7c(Cl)cccc75)C65CCCCC5)CC4)CC3)nn2)cc1
70 to 90%
Cc1ncsc1-c1ccc([C@H](CN2CCOCC2)NC(=O)[C@@H]2C[C@@H](O)CN2C(=O)[C@@H](n2cc([C@H]3CC[C@H](CN4CCC(c5ccc6c(n5)-n5c(nc(=O)c7c(Cl)cccc75)C65CCCCC5)CC4)CC3)nn2)C(C)(C)C)cc1
70 to 90%
Cc1ncsc1-c1ccc([C@H](CN2CC(C)(O)C2)NC(=O)[C@@H]2C[C@@H](O)CN2C(=O)[C@@H](n2cc([C@H]3CC[C@H](CN4CCC(c5ccc6c(c5)-n5c(nc(=O)c7c(Cl)cccc75)C65CCCCC5)CC4)CC3)nn2)C(C)(C)C)cc1
> 90%

As a next step, examine the compound that follows.
Value of Dmax reported for the compound Cc1ncsc1-c1ccc([C@H](C)NC(=O)[C@@H]2C[C@@H](O)CN2C(=O)[C@H](C2CCOCC2)n2cc([C@H]3CC[C@H](CN4CCC(c5ccc6c(c5)-n5c(nc(=O)c7c(Br)cccc75)C65CCCCC5)CC4)CC3)nn2)cc1 is > 90%

###

Biological target: SMARCA4 (Homo sapiens)
Sequence (P51532 whole entry): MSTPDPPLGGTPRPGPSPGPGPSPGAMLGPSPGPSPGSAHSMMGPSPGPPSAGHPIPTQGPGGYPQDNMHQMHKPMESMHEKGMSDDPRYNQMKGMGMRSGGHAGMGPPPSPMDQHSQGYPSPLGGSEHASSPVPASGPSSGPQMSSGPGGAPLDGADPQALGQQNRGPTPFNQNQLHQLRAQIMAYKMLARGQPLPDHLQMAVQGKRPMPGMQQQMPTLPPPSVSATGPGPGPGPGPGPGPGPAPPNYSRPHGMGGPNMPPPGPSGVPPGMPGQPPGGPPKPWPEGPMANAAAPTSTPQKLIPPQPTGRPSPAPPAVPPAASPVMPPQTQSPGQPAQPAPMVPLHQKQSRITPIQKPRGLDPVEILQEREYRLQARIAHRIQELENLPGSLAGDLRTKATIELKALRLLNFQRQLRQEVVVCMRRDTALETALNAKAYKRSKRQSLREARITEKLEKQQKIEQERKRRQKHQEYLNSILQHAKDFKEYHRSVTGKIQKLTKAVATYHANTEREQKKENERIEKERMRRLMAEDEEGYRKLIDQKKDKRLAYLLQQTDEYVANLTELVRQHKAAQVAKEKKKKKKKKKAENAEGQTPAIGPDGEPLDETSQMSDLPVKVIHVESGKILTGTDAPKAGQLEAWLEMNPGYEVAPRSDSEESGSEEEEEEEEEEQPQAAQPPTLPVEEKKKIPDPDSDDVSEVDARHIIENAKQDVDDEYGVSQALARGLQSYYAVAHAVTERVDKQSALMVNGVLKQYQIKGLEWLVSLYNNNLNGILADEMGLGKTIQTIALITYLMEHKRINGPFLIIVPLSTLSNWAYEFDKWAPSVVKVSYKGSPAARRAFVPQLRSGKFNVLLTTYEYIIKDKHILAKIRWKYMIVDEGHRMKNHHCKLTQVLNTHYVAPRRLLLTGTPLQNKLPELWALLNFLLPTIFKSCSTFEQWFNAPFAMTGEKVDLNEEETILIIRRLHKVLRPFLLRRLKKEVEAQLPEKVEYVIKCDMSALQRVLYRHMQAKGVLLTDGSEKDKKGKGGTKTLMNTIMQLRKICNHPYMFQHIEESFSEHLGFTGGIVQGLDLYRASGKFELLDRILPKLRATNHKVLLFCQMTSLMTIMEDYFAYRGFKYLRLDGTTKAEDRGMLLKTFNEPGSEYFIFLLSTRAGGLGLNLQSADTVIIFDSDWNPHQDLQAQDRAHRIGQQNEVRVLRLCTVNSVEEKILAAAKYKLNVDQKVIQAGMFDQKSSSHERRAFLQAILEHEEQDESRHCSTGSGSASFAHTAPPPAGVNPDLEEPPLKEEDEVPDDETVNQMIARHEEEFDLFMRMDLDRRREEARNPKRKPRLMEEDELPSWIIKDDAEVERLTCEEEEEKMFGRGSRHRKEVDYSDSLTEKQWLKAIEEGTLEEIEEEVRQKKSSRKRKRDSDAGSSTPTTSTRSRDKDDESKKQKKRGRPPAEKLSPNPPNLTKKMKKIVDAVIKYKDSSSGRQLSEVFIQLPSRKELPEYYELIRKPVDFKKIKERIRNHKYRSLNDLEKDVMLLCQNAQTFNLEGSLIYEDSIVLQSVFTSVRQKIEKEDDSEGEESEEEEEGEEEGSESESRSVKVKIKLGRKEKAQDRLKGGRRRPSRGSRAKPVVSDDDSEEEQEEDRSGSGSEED
Test: HiBit assay in engineered HT1080 CRISPR knock-in cell, 6 hrs (B series), SMARCA4
Type: cell-based
Conditions: HT1080 CRISPR knock-in cells, 6 hrs incubation; read-out: SMARC A4 HT1080 HiBit DC50
test readout: DC50

Worked cases, answers included:
Cc1ncsc1-c1ccc([C@H](CCCCCN2CCC(c3ccc4c(c3)C(C)(C)c3nc(=O)c5c(Cl)cccc5n3-4)CC2)NC(=O)[C@@H]2C[C@@H](O)CN2C(=O)[C@@H](NC(=O)C2(F)CC2)C(C)(C)C)cc1 [Compound B7]
< 0.1 µM
Cc1ncsc1-c1ccc([C@H](C)NC(=O)[C@@H]2C[C@@H](O)CN2C(=O)[C@@H](NC(=O)[C@H]2CC[C@H](CN3CCC(c4ccc5c(c4)-n4c(nc(=O)c6c(Cl)cccc64)C5(C)C)CC3)CC2)C(C)(C)C)cc1 [Compound B40]
0.1 to 0.5 µM

Input Cc1ncsc1-c1ccc([C@H](C)NC(=O)[C@@H]2C[C@@H](O)CN2C(=O)[C@@H](c2cc(N3CCC(CN4CCC(c5ccc6c(c5)C(C)(C)c5nc(=O)c7c(Cl)cccc7n5-6)CC4)CC3)no2)C(C)C)cc1 [Compound B9] . Output DC50: < 0.1 µM

###

Target: SMARCA4 (Homo sapiens)
Experiment: HiBit assay in engineered HT1080 CRISPR knock-in cell, 6 hrs (B series), SMARCA4
Type: cell-based
Conditions: HT-1080, HT1080 CRISPR knock-in cells, 6 hrs incubation; read-out: SMARC A4 HT1080 HiBit Dmax(%)
Reported Dmax values for the following compounds.

Cc1ncsc1-c1ccc([C@H](C)NC(=O)[C@@H]2C[C@@H](O)CN2C(=O)[C@@H](c2cc(OCCCn3cc(-c4ccc5c(c4)C(C)(C)c4nc(=O)c6c(Cl)cccc6n4-5)cn3)no2)C(C)C)cc1 [Compound B71]
< 50%

The reported Dmax of the compound C[C@H](NC(=O)[C@@H]1C[C@@H](O)CN1C(=O)[C@@H](n1cc([C@H]2CC[C@H](CN3CCC(c4ccc5c(c4)-n4c(nc(=O)c6c(Cl)cccc64)C5(C)C)CC3)CC2)nn1)C(C)(C)C)c1ccc(-c2scnc2C#N)cc1 [Compound B141] was < 50%

###

Biological target: SMARCA4 (Homo sapiens)
Assay: HiBit assay in engineered HT1080 CRISPR knock-in cell, 6 hrs (B series), SMARCA4
Assay type: cell-based
Conditions: HT1080 CRISPR knock-in cells, 6 hrs incubation
test readout: SMARC A4 HT1080 HiBit Dmax(%)

Cc1ncsc1-c1ccc([C@H](CC(=O)NCC2CCC(N3CCC(c4ccc5c(c4)-n4c(nc(=O)c6c(Cl)cccc64)C5(C)C)CC3)CC2)NC(=O)[C@@H]2C[C@@H](O)CN2C(=O)[C@@H](NC(=O)C2(F)CC2)C(C)(C)C)cc1 (stereo partly shown)
D (D (<50% degradation))
Cc1ncsc1-c1ccc([C@H](C)NC(=O)[C@@H]2C[C@@H](O)CN2C(=O)[C@@H](c2cc(OC3CCC(Cn4cc(-c5ccc6c(c5)-n5c(nc(=O)c7c(Cl)cccc75)C6(C)C)cn4)CC3)no2)C(C)C)cc1 (stereo partly shown)
D (D (<50% degradation))

###

// values below are reported DC50
Molecular target: SMARCA2 (Homo sapiens, UniProt P51531)
Sequence (P51531 whole entry): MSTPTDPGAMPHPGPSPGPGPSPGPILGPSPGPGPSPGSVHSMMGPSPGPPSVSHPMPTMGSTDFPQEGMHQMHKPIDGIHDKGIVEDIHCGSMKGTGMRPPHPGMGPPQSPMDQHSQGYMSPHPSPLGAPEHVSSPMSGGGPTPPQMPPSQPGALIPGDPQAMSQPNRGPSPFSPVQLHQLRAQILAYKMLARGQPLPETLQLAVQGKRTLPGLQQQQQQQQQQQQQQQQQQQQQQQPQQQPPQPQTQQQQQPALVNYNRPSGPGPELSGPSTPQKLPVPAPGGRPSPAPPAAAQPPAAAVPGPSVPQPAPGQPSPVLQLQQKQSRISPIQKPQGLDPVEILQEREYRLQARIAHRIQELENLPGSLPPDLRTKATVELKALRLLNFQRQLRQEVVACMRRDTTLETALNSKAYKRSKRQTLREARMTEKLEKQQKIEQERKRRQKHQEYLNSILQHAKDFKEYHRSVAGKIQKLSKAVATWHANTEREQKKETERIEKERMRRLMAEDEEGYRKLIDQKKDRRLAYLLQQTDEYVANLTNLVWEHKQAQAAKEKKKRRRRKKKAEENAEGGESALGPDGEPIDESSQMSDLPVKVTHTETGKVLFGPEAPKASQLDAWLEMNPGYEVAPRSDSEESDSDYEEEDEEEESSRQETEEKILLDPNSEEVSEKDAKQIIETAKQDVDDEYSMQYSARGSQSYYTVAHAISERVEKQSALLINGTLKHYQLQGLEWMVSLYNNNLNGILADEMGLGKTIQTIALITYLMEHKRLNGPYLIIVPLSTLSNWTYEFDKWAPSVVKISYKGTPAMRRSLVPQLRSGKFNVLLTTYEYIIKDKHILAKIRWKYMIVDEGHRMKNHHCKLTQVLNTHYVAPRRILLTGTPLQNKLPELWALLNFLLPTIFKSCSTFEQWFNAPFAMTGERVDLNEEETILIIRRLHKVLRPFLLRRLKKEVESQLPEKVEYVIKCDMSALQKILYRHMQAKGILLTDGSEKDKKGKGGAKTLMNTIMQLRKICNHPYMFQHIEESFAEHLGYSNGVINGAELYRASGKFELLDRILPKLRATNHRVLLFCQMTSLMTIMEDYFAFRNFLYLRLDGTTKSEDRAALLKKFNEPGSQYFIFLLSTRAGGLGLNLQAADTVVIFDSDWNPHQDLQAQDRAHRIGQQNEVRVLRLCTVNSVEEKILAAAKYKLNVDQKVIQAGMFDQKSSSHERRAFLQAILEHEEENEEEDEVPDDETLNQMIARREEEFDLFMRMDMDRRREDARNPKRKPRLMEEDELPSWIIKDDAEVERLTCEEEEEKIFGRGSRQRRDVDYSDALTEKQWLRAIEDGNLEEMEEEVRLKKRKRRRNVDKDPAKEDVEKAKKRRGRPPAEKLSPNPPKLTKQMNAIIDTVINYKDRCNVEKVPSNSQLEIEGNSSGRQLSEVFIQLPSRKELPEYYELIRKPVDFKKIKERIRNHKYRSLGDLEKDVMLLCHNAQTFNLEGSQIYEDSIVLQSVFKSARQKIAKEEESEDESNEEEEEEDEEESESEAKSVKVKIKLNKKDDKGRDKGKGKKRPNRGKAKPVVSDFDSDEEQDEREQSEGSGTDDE
Test: HiBit assay in engineered HT1080 CRISPR knock-in cell, 6 hrs (B series), SMARCA2
Assay type: cell-based
Conditions: HT1080 CRISPR knock-in cells, 6 hrs incubation; read-out: SMARC A2 HT1080 HiBit DC50

For C#Cc1ccc([C@H](CN2CCOCC2)NC(=O)[C@@H]2C[C@@H](O)CN2C(=O)[C@@H](n2cc([C@H]3CC[C@H](CN4CCC(c5ccc6c(c5)-n5c(nc(=O)c7c(Cl)cccc75)C6(C)C)CC4)CC3)nn2)C(C)(C)C)cc1 on SMARCA2 (Homo sapiens, UniProt P51531), measured DC50 was < 0.1 µM

Field DC50 (system: SMARCA2 (Homo sapiens, UniProt P51531)) for entry Cc1ncsc1-c1ccc([C@H](C)NC(=O)[C@@H]2C[C@@H](O)CN2C(=O)[C@@H](c2cc(OCC#Cc3cccc4c3C(C)(C)c3nc(=O)c5c(Cl)cccc5n3-4)no2)C(C)C)cc1 = < 0.1 µM

Param item: Cc1ncsc1-c1ccc([C@H](C)NC(=O)[C@@H]2C[C@@H](O)CN2C(=O)[C@@H](c2cc(OCCCCn3cc(-c4ccc5c(c4)-n4c(nc(=O)c6c(Cl)cccc64)C5(C)C)cn3)no2)C(C)C)cc1 ; param system: SMARCA2 (Homo sapiens, UniProt P51531); output DC50: 0.1 to 0.5 µM

Note to self: DC50 of Cc1cc(-c2scnc2C)ccc1[C@H](C)NC(=O)[C@@H]1C[C@@H](O)CN1C(=O)[C@@H](n1cc([C@H]2CC[C@H](CN3CCC(c4ccc5c(c4)-n4c(nc(=O)c6c(Cl)cccc64)C5(C)C)CC3)CC2)nn1)C(C)(C)C with SMARCA2 (Homo sapiens, UniProt P51531) was < 0.1 µM

DC50 value, target or system SMARCA2 (Homo sapiens, UniProt P51531), for Cc1ncsc1-c1ccc([C@H](C)NC(=O)[C@@H]2C[C@@H](O)CN2C(=O)[C@@H](NC(=O)CCCCN2CCC(c3ccc4c(c3)-n3c(nc(=O)c5c(Cl)cccc53)C4(C)C)CC2)C(C)(C)C)cc1 : 0.1 to 0.5 µM
